Attribution: BigSolDB 2.1

STUDY CONDITIONS: in water, 353.15 K
Would you kindly list solubility (mole fraction) for each of these compounds?
Output spec: single numeric token, no unit.

Field solubility (mole fraction) (entry O=Cc1ccco1 ) reads 0.028

Field solubility (mole fraction) (entry O=Cc1ccccc1 ) reads 0.00236

Field solubility (mole fraction) (entry CCCCCC1CCC(=O)O1 (centres undefined) ) reads 0.00109

Field solubility (mole fraction) (entry OCCc1ccccc1 ) reads 0.0056

###

STUDY CONDITIONS: in water, 373.15 K
PARAMETER MEASURED: solubility (mole fraction)
Output spec: single numeric token, no unit.

Field solubility (mole fraction) (entry O=Cc1ccco1 ) reads 0.034

Field solubility (mole fraction) (entry CCCCCC1CCC(=O)O1 (centres undefined) ) reads 0.00128

Field solubility (mole fraction) (entry OCCc1ccccc1 ) reads 0.0065

Field solubility (mole fraction) (entry O=Cc1ccccc1 ) reads 0.0036
